These entries and their values trace back to PubChem BioAssay (NCATS).

- PROTOCOL_DETAILS: Validation qHTS assay for inhibitors of Activation Induced Cytidine Deaminase (AID): UDG Counterscreen signal (AID 1347427)
- ASSAY_SETUP: biochemical UDG counterscreen, fluorescence signal; series mostly up to 115 µM
Calls of active or inactive are those of the source. The call rests on the fitted dose curve; in most records, active means well fitted curve in the direction sought with a large enough effect; inconclusive means small, poorly fitted or top-dose-only effect, or another doubt; inactive means no such curve, though single readings can be large or run the other way.
Parameter call: string, one of active, inactive

[
  {
    "COMPOUND": "CN1C2CCC1CC(OC(=O)C(O)c1ccccc1)C2 (configuration not stated)",
    "CLASSIFICATION": "inactive"
  },
  {
    "COMPOUND": "O=C(Nc1ccccc1)c1cc([N+](=O)[O-])ccc1Cl",
    "CLASSIFICATION": "inactive"
  },
  {
    "COMPOUND": "O=C1NC(=O)/C(=C/c2ccc(-c3ccc(F)cc3O)o2)S1",
    "CLASSIFICATION": "inactive"
  },
  {
    "COMPOUND": "Cc1ccc(O)c(N=Nc2ccccc2)n1",
    "CLASSIFICATION": "inactive"
  },
  {
    "COMPOUND": "NC(=S)c1ccc[n+]([C@@H]2O[C@@H](COP(=O)([O-])OP(=O)(O)OC[C@H]3O[C@@H](n4cnc5c(N)ncnc54)[C@H](OP(=O)(O)O)[C@@H]3O)C(O)C2O)c1 (some centres not stated)",
    "CLASSIFICATION": "inactive"
  },
  {
    "COMPOUND": "C=CC(C)=C[C@@]1(C)SC(=O)C(C)=C1O",
    "CLASSIFICATION": "inactive"
  },
  {
    "COMPOUND": "O=C(O)c1cc([N+](=O)[O-])ccc1NCCCc1ccccc1",
    "CLASSIFICATION": "inactive"
  },
  {
    "COMPOUND": "NC(=O)C1=CN(C2OC(COP(=O)(O)OP(=O)(O)OC[C@H]3O[C@@H](n4cnc5c(N)ncnc54)[C@H](OP(=O)(O)O)[C@@H]3O)C(O)C2O)C=CC1 (some centres not stated)",
    "CLASSIFICATION": "inactive"
  }
]

### Prompt For this compound, state the assay outcome: `NCCCCCCCCCCN`
### Response inactive

### Prompt Assay outcome for `CC(C)ON([C@@H](C(=O)NO)C(C)C)S(=O)(=O)c1ccc(-c2ccccc2)cc1` : what was it?
### Response inactive

### Prompt Just curious, what result did `O=C(O)CC[C@@H](C(=O)O)N1C(=O)c2ccccc2C1=O` get here?
### Response inactive

### Prompt What did this assay record as the result for `CNc1ncnc2c1ncn2[C@@H]1O[C@H](CO)[C@@H](O)[C@H]1O` ?
### Response inactive

### Prompt For `O=C(/C=C/c1ccc(O)cc1)c1ccc(O)cc1O` , what call appears in the results of this test?
### Response inactive

### Prompt Assay outcome for `Cn1c(=O)c2[nH]c(-c3ccccc3)nc2n(C)c1=O` : what was it?
### Response inactive

### Prompt Hey, what did the test say about `Ic1ccc(N2CCN(Cc3c[nH]c4ncccc34)CC2)cc1` ?
### Response inactive

### Prompt How was `Clc1ccc(N2CCN(Cc3c[nH]c4ncccc34)CC2)cc1` classified in this test?
### Response inactive

### Prompt Status in this test for `CC(C)(C=O)Cc1cc(C(C)(C)C)c(O)c(C(C)(C)C)c1` ?
### Response inactive

### Prompt Record lookup: outcome of this test for `Cn1ncc(S(=O)(=O)Cc2ccccc2)c(Br)c1=O` ?
### Response inactive

### Prompt I'd appreciate the recorded outcome for CC(COc1ccc(/C=C/c2ccccc2)cc1)[N+](C)(C)C (configuration not stated) from this test.
### Response inactive

### Prompt Tell me the recorded outcome of this test for `O=C(c1cc(O)c(O)c([N+](=O)[O-])c1)c1ccccc1F` .
### Response inactive

### Prompt Outcome logged for `O=C(O)CCCC[C@@H]1CCSS1` in this assay:
### Response inactive

### Prompt I would be grateful if you could indicate the recorded call for `O=C(O)[C@@H]1C[C@@H](C(=O)O)N1` .
### Response inactive

### Prompt State the result this test recorded for `COc1ccc(/C=C/C(=O)Nc2ccccc2C(=O)O)cc1OC` .
### Response inactive

### Prompt Tell me the recorded outcome of this test for `COc1cc(OC)c(/C=C2/C(=O)Nc3ccccc32)c(OC)c1` .
### Response inactive
